system: DU-145 prostate; experiment: NCI tumour cell line growth inhibition, 48 h; in the data active = GI50 below about 0.43 µM; inactive = the rest
Outcomes: active, inactive

input-smiles: Fc1ccc(-c2cc3nc(C(Cl)Cl)nc(-c4ccco4)n3n2)cc1
target-or-system: DU-145 prostate
assigned-category: active

input-smiles: COc1ccc(Cn2cc3c(c2-c2cc(OC)c(OC)c(OC)c2)CCCc2cnoc2-3)cc1
target-or-system: DU-145 prostate
assigned-category: inactive

input-smiles: CCOC(=O)c1c(NC(=O)c2ccc(C(F)(F)F)cc2)sc2c(CN3CCN(C)CC3)c(O)ccc12
target-or-system: DU-145 prostate
assigned-category: inactive

input-smiles: Cc1cccc2sc(/N=C(\N)C(Br)Br)nc12
target-or-system: DU-145 prostate
assigned-category: inactive

Reference source for all entries: PubChem BioAssay (NCI)
